Test system: skeletal SR (SERCA1a only) (Oryctolagus cuniculus, UniProt P04191)
Construct: Skeletal muscle SR membrane vesicles were isolated from longissimus dorsi obtained from New Zealand white rabbits; from tissue; host or cells: rabbit longissimus dorsi skeletal muscle, SR membrane vesicles
Sequence (P04191 1-994 isoform P04191-2): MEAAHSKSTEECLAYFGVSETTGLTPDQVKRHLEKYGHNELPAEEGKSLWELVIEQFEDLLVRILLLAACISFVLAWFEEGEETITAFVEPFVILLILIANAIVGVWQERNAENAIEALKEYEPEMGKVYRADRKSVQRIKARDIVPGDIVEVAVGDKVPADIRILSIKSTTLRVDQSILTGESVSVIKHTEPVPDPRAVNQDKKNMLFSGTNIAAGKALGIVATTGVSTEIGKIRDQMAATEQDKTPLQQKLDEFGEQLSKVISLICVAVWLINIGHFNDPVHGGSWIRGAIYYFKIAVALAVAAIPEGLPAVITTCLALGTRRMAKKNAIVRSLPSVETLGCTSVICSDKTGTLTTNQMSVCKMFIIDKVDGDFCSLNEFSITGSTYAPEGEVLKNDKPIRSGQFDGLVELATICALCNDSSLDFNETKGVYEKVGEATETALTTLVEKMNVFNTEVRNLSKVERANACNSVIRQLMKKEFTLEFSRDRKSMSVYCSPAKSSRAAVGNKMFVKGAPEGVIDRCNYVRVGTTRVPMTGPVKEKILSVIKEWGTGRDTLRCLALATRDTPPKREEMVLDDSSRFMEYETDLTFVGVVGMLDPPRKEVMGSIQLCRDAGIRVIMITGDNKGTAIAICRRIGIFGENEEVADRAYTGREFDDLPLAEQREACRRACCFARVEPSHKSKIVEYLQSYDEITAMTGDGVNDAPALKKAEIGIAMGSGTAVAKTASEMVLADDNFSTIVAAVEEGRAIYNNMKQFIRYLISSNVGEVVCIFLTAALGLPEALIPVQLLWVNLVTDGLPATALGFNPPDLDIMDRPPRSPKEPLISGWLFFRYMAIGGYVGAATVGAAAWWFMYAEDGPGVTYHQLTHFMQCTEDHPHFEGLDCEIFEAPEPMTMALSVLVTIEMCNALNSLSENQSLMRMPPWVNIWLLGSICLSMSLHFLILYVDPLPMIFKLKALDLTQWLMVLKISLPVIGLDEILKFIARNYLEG
Assay explanation: Ca-ATPase activity of skeletal SR (SSR), NADH-linked enzyme-coupled assay
Type: biochemical, rabbit
Measurement setup: SSR, 30 µM compound
Vmax @ 30 µM listing for selected compounds.
Give just the number in i.u.; leave the unit off.

Some entries whose results are on file:
1) CCCCCCCCCCCCCCCC(=O)OC(CC(=O)O)C[N+](C)(C)C.[Cl-] (racemic) [Palmitoyl-DL-carnitine chloride] ... 0.57
2) CN1CCC[C@@H]1Cc1c[nH]c2ccc(Nc3ncccc3[N+](=O)[O-])cc12 ... 2.67
3) Cc1[nH]c(=O)c(C#N)cc1-c1ccc2nccn2c1 ... 2.70
4) C=C(C)[C@H]1Cc2c(ccc3c2O[C@@H]2COc4cc(OC)c(OC)cc4[C@@H]2C3=O)O1 ... 2.64
5) CCCCN(CC)c1nc(C)nc2c1c(C)cn2-c1c(C)cc(C)cc1C ... 3.40

## Task Suppose we examine the compound NC(=O)N1C(=O)/C(=C(\O)c2cccs2)c2cc(Cl)ccc21 ; what Vmax @ 30 µM value has been reported?
## Result 2.66

## Task Fill in the blank: the reported Vmax @ 30 µM of CNC(=O)c1cc2c(cn1)[nH]c1ccccc12 is ____.
## Result 2.63

## Task Returns the measured Vmax @ 30 µM for the input compound. Input: CCc1ccc(/C=C2/SC(=S)NC2=O)cc1
## Result 2.63

## Task Endpoint output: Vmax @ 30 µM of CC(C)(C)c1ccc(/C=C/C(=O)Nc2ccc3c(c2)OCCO3)cc1 . Value?
## Result 2.62

## Task Recorded Vmax @ 30 µM for COC(=O)c1c(C)[nH]c(C)c1C(=O)c1ccccc1Cc1ccccc1 , please?
## Result 2.64

## Task Which Vmax @ 30 µM value is on record for O=C(Nc1cccnc1)N1CCC(Cc2cccc(Oc3ccc(C(F)(F)F)cn3)c2)CC1 ?
## Result 2.61

====

# pEC50 per record follows
Test system: SERCA2a-PLB complex (GFP-SERCA2a / RFP-PLB in HEK293 cells) (Homo sapiens, UniProt P16615+P26678, C36A/C41F/C46A)
Sequence (P16615 1-997 isoform P16615-2, stated change not applied): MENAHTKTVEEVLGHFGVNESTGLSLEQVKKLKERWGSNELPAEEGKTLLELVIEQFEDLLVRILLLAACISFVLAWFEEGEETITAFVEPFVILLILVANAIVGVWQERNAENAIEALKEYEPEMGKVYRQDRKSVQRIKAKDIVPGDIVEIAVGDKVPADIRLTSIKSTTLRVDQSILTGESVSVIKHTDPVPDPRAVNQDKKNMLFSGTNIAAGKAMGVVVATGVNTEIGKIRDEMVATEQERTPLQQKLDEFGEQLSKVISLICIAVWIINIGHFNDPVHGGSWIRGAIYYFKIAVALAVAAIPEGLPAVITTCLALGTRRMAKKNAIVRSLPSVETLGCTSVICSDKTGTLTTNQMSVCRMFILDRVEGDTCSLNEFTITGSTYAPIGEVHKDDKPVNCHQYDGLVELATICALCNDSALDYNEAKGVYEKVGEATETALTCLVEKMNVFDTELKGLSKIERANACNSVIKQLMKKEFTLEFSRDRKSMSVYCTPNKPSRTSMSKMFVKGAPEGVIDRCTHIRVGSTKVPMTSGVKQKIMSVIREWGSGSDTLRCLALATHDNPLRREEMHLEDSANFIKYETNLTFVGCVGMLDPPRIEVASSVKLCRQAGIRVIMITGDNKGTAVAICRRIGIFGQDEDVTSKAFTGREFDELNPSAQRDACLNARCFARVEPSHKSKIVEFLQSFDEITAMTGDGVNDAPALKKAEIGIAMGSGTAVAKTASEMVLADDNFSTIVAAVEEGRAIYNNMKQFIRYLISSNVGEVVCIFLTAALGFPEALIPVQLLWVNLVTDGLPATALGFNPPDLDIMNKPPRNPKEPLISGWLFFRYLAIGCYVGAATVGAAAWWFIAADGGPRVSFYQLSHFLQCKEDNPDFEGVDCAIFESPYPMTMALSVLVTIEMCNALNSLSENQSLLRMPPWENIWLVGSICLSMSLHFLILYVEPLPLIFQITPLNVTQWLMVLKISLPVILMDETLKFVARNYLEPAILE
Sequence (P26678 whole entry C36A/C41F/C46A): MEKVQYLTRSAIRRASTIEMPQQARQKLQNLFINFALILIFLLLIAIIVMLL
Assay explanation: SERCA2a-PLB TR-FRET (fluorescence lifetime) biosensor assay in living cells
Type: cell-based
Design: expressed in transfected cells; host or cells: HEK293
Measurement setup: concentration-response 0.01-100 µM compound, live HEK293 cells
The read-out pEC50 is expressed as -log10 of concentration in moles per litre.

1) CN=c1nc(-c2ccccc2)n(-c2ccccc2)s1 ... 5.74

Turning now to a further record.
## Task For the compound Brc1c(Br)c(Br)c2n[nH]nc2c1Br , what pEC50 is on record?
## Result 4.14

====

Test system: skeletal SR (SERCA1a only) (Oryctolagus cuniculus)
Construct: Skeletal muscle SR membrane vesicles were isolated from longissimus dorsi obtained from New Zealand white rabbits; from tissue; host or cells: rabbit longissimus dorsi skeletal muscle, SR membrane vesicles
Assay explanation: Ca-ATPase activity of skeletal SR (SSR), NADH-linked enzyme-coupled assay
Assay type: biochemical, rabbit
Measurement setup: SSR, 30 µM compound, relative to DMSO control
Recorded ΔVmax @ 30 µM by entry
Quick note: give the figure in %, leave out the unit.

Before answering, review these 8 worked examples.
1) O=C(c1cc(O)c(O)c([N+](=O)[O-])c1)c1ccccc1F [Ro 41-0960] ... -45.1
2) COC(=O)c1c(C)[nH]c(C)c1C(=O)c1ccccc1Cc1ccccc1 [FPL 64176] ... 0.7
3) CCCCCCCCCCCCCCCC(=O)OC(CC(=O)O)C[N+](C)(C)C.[Cl-] (racemic) [Palmitoyl-DL-carnitine chloride] ... -78.1
4) Oc1ccc(/C=C/c2ccc(/C=C/c3ccc(O)cc3)c(Br)c2)cc1 [K114] ... -87.9
5) CC(C)(C)c1ccc(/C=C/C(=O)Nc2ccc3c(c2)OCCO3)cc1 [AMG9810] ... 0.1
6) CNC(=O)c1cc2c(cn1)[nH]c1ccccc12 [FG7142] ... 0.5
7) CN1CCC[C@@H]1Cc1c[nH]c2ccc(Nc3ncccc3[N+](=O)[O-])cc12 [CP-135807] ... 2.1
8) Brc1c(Br)c(Br)c2n[nH]nc2c1Br [TBB] ... 1.6

## Task State the recorded ΔVmax @ 30 µM for this entry: CN=c1nc(-c2ccccc2)n(-c2ccccc2)s1 [SCH 202676]
## Result -97.3

## Task Need ΔVmax @ 30 µM of CCc1ccc(/C=C2/SC(=S)NC2=O)cc1 [10058-F4] , thanks.
## Result 0.5

====

Test system: SERCA2a-PLB complex (GFP-SERCA2a / RFP-PLB in HEK293 cells) (Homo sapiens, UniProt P16615+P26678, C36A/C41F/C46A)
Assay explanation: SERCA2a-PLB TR-FRET (fluorescence lifetime) biosensor assay in living cells
Type: cell-based
Set-up: expressed in transfected cells; host or cells: HEK293
Measurement setup: concentration-response 0.01-100 µM compound, live HEK293 cells
Reported EC50 by item:
Your answer should be a plain number; it is taken to be in µM.

Consider the reported EC50 for these molecules:
1. Oc1ccc(/C=C/c2ccc(/C=C/c3ccc(O)cc3)c(Br)c2)cc1 ... 41.3
2. Clc1ccc(C(c2ccc(Cl)cc2)n2cc[n+](CC(OCc3ccc(Cl)cc3Cl)c3ccc(Cl)cc3Cl)c2)cc1 (centres unmarked) ... 26.3
3. CC1=C(/C=C/C(C)=C/C=C/C(C)=C/C(=O)O)C(C)(C)CCC1 ... 65.5
4. CCOc1nc2cccc(C(=O)OC(C)OC(=O)OC3CCCCC3)c2n1Cc1ccc(-c2ccccc2-c2nnn[nH]2)cc1 (centres unmarked) ... 20.1

## Task Which value of EC50 has been reported for CCCCCCCCCCCCCCCC(=O)OC(CC(=O)O)C[N+](C)(C)C.[Cl-] (racemic) [Palmitoyl-DL-carnitine chloride] in the records?
## Result 24.9

## Task What does the data say about its EC50? Entry: CCCCN(CC)c1nc(C)nc2c1c(C)cn2-c1c(C)cc(C)cc1C
## Result 9.3

## Task Item O=C(c1cc(O)c(O)c([N+](=O)[O-])c1)c1ccccc1F has what recorded EC50?
## Result 22.5

====

Test system: skeletal SR (SERCA1a only) (Oryctolagus cuniculus)
Construct: Skeletal muscle SR membrane vesicles were isolated from longissimus dorsi obtained from New Zealand white rabbits; from tissue; host or cells: rabbit longissimus dorsi skeletal muscle, SR membrane vesicles
Assay explanation: Ca-ATPase activity of skeletal SR (SSR), NADH-linked enzyme-coupled assay
Type: biochemical, rabbit
Measurement setup: SSR, 30 µM compound
Readout label: Vmax @ 30 µM (i.u.)
Report only the number, with the unit i.u. understood.

## Task What measured Vmax @ 30 µM goes with CN=c1nc(-c2ccccc2)n(-c2ccccc2)s1 [SCH 202676] ?
## Result 0.07

====

Test system: skeletal SR (SERCA1a only) (Oryctolagus cuniculus, UniProt P04191)
Construct: Skeletal muscle SR membrane vesicles were isolated from longissimus dorsi obtained from New Zealand white rabbits; from tissue; host or cells: rabbit longissimus dorsi skeletal muscle, SR membrane vesicles
Assay explanation: Ca-ATPase activity of skeletal SR (SSR), NADH-linked enzyme-coupled assay
Assay type: biochemical, rabbit
Measurement setup: SSR, 30 µM compound
Would you please tag the item met when its Vmax @ 30 µM is 1 i.u. or above, and not met when it is below?

1. Oc1ccc(/C=C/c2ccc(/C=C/c3ccc(O)cc3)c(Br)c2)cc1 [K114] ... not met
2. CC1=C(/C=C/C(C)=C/C=C/C(C)=C/C(=O)O)C(C)(C)CCC1 [Retinoic Acid] ... met
3. Clc1ccc(C(c2ccc(Cl)cc2)n2cc[n+](CC(OCc3ccc(Cl)cc3Cl)c3ccc(Cl)cc3Cl)c2)cc1 (stereo not drawn) [Calmidazolium] ... not met
4. CCOc1nc2cccc(C(=O)OC(C)OC(=O)OC3CCCCC3)c2n1Cc1ccc(-c2ccccc2-c2nnn[nH]2)cc1 (stereo not drawn) [Candesartan cilexetil] ... not met
5. Brc1c(Br)c(Br)c2n[nH]nc2c1Br [TBB] ... met

# evaluate next
## Task Assess whether reported Vmax @ 30 µM for O=C(c1cc(O)c(O)c([N+](=O)[O-])c1)c1ccccc1F [Ro 41-0960] sits at 1 i.u. or higher.
## Result met
